test system: biotinyl-Met-oxazolone; assay: self-aminoacylation, catalytic enhancement (BMO) (fold over background); higher = more active; k-Seq, kA / k0A0; sequences stand for … in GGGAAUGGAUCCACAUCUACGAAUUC…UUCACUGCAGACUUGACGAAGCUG
Variants at the floor of the assay were thinned out.

Residues	self-aminoacylation
CCACACUUCAAGCGAUCGCUC [Fam1B.1 aminoacylation ribozyme variant]	1.85
AUUCAACUAGGUCUUCGGGUG [Fam2.2 aminoacylation ribozyme variant]	4.21
AAGUUUGCUUAUACUCGCAAG [Fam3.1 aminoacylation ribozyme variant]	0.863
AUUCUCCCAGGUCAUCGGGUG [Fam2.2 aminoacylation ribozyme variant]	10.2
CUACACUUAAAGCAAUCGGUC [Fam1B.1 aminoacylation ribozyme variant]	0.713
AUUACCCAGCUCAUCGAGUGA [Fam2.1 aminoacylation ribozyme variant]	1.54
CUACUUGAAACUAUCGGUCUG [Fam1A.1 aminoacylation ribozyme variant]	0.986
AUUUCCCUGAUCAUCGAGUGA [Fam2.1 aminoacylation ribozyme variant]	6.25
AUUCAUCUAGGUCAACGGGUG [Fam2.2 aminoacylation ribozyme variant]	4.08

====

tested on: biotinyl-Phe-oxazolone; test: self-aminoacylation, catalytic enhancement (BFO) (fold over background); higher = more active; k-Seq, kA / k0A0; sequences stand for … in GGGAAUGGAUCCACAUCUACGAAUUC…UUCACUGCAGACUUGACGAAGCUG
Fewer inactive variants are shown than the library holds.
Assign class by self-aminoacylation: not lower than 10 means condition met; lower than 10 means condition not met.

Residues	Class Name
AUUCACCUAUGUCAACGGGUG [Fam2.2 aminoacylation ribozyme variant]	condition met
AUACACCUGGGUCAUCGGGUG [Fam2.2 aminoacylation ribozyme variant]	condition met
CUACUUGAAACAAUCGGACUG [Fam1A.1 aminoacylation ribozyme variant]	condition not met
AUGUUUGCUAAUAGUCGCAAG [Fam3.1 aminoacylation ribozyme variant]	condition met
CCGCACUUCAAGUAAUCGGUC [Fam1B.1 aminoacylation ribozyme variant]	condition met
CCACACGUCGAGCAAUCGGUC [Fam1B.1 aminoacylation ribozyme variant]	condition not met
AAGUUUGCUGACAGUCGCAAG [Fam3.1 aminoacylation ribozyme variant]	condition not met
AAGUUUGCUAGGAGUCGCAAG [Fam3.1 aminoacylation ribozyme variant]	condition not met
AAGGUUGCUAAUAAUCGCAAG [Fam3.1 aminoacylation ribozyme variant]	condition not met

====

tested on: biotinyl-Met-oxazolone; test: self-aminoacylation, catalytic enhancement (BMO) (fold over background); higher = more active; k-Seq, kA / k0A0; sequences stand for … in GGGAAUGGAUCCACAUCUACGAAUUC…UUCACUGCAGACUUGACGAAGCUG
Fewer inactive variants are shown than the library holds.
Could you label it class 1 if measured self-aminoacylation is 1 or higher, and class 0 otherwise?

Residues	Class Name
AUUCACCUAGGUCAUCAGGCG [Fam2.2 aminoacylation ribozyme variant]	class 1
ACUACCCUGGUCAUCGAGUAA [Fam2.1 aminoacylation ribozyme variant]	class 1
AUUAUCCUGGUCAGCGAGUGA [Fam2.1 aminoacylation ribozyme variant]	class 1
CUACUUCAAACGAUCGCUCUG [Fam1A.1 aminoacylation ribozyme variant]	class 0
AUUCAUGUAGGUCAUCGGGUG [Fam2.2 aminoacylation ribozyme variant]	class 1

====

tested on: biotinyl-Phe-oxazolone; assay: self-aminoacylation, catalytic enhancement (BFO) (fold over background); higher = more active; k-Seq, kA / k0A0; sequences stand for … in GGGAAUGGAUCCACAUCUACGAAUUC…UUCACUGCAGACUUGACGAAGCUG
Variants at the floor of the assay were thinned out.
Label T when self-aminoacylation is at or above 2; anything below gets F.

Residues	Measurement Target	Class Name
CUACUUCAAACCAACGGUCUG [Fam1A.1 aminoacylation ribozyme variant]	biotinyl-Phe-oxazolone	F
CUACUUCAAACAACCGGUCGG [Fam1A.1 aminoacylation ribozyme variant]	biotinyl-Phe-oxazolone	F
AUGCACCUAAGUCAUCGGGUG [Fam2.2 aminoacylation ribozyme variant]	biotinyl-Phe-oxazolone	T
AAGUUUGCUAAUGGUCGGAAG [Fam3.1 aminoacylation ribozyme variant]	biotinyl-Phe-oxazolone	F
CUACUUGUAACAAUCGGUCUG [Fam1A.1 aminoacylation ribozyme variant]	biotinyl-Phe-oxazolone	F
CUACUUCAAACAACCGGUAUG [Fam1A.1 aminoacylation ribozyme variant]	biotinyl-Phe-oxazolone	F
AUUAGCCUCGUCAUCGAGUGA [Fam2.1 aminoacylation ribozyme variant]	biotinyl-Phe-oxazolone	T
AUUAGCCUGGUCAUCGAGUGA [Fam2.1 aminoacylation ribozyme variant]	biotinyl-Phe-oxazolone	T
CCAUACUUCAAGCAAUCGGGC [Fam1B.1 aminoacylation ribozyme variant]	biotinyl-Phe-oxazolone	T
CUACUCCAAACAAUCUGUCUG [Fam1A.1 aminoacylation ribozyme variant]	biotinyl-Phe-oxazolone	F
AUUACCCUGGUCAGCGAUUGA [Fam2.1 aminoacylation ribozyme variant]	biotinyl-Phe-oxazolone	T
CUUCACCUAGGUCAUUGGGUG [Fam2.2 aminoacylation ribozyme variant]	biotinyl-Phe-oxazolone	T
ACUACCCUGGUCCUCGAGUGA [Fam2.1 aminoacylation ribozyme variant]	biotinyl-Phe-oxazolone	T
CUACUUCUAACAAUCGCUCUG [Fam1A.1 aminoacylation ribozyme variant]	biotinyl-Phe-oxazolone	F
AUUCACCUAGGUCAUCGGGAA [Fam2.2 aminoacylation ribozyme variant]	biotinyl-Phe-oxazolone	T
ACGUUUGCUAAUAGUCUCAAG [Fam3.1 aminoacylation ribozyme variant]	biotinyl-Phe-oxazolone	T
AAGUUUGCUGAUAGUCGCUAG [Fam3.1 aminoacylation ribozyme variant]	biotinyl-Phe-oxazolone	F

Sourced from the supplement of paper PMC9233669
